measured target: H1 HA A/Texas/3/99 (ELISA antigen) (influenza A virus A/Texas/3/99 (H1))
method notes: ELISA
endpoint label: K50

Please review the following examples before continuing.
FE53 (antibody, V domains shown) VH: QVQLVQSGAEVKKPGSSVKVSCKASGVTSSNYPITWVRQAPGQGLEWMGGVLPLFGVTNYAQKFQGRVTISADKSTNTAYMELSSLRSEDTAVYYCARGKRPGYCSGGVCSSDYWGQGTLVTVSS VL: DIQMTQSPSSLSASVGDRVSITCQASQDISRYLNWYQQKPGEAPKLLIYDASNLETGVPSRFSGSGSGTDFTFTISSLQPEDIATYFCQQYGYLPLTFGPGTKVDSK ... 0.015 µg/mL
FB139 (antibody, V domains shown) VH: QVQLVQSGAEVKKAGSSVKVSCQSSGVTFSMYAVSWVRQAPGQGLEWMGGIIPLFGTTTYAQKFEGRLTITADTSTNMAYLELRSLRSEDTAVYFCARAGTTVTRFNWFDPWGQGTLVTVSS VL: EVVLTQSPGTLSLSPGQRATLSCRASQSVSSSYLAWYQQKPGQAPRLLIYDASNRATGIPDRFSGSGSGTDFTLTISRLEPEDFAVYYCQQYGSSPYTFGQGTKLEIK ... 0.06 µg/mL
FE43 (antibody, V domains shown) VH: QVHLVQSGAEVKKPGSSVRLSCSASGGPFSGFAISWLRQAPGQGLEWLGGISAVFGTATYAQKFQGRVTITADQFTSTSHMDLSRLTYDDTAVYYCARSGGYLPQNNWIDPWGQGTLVIVSS VL: DIVMTQTPLSLSVTPGQPASISCKSSQSLLHSDGKTYLYWYLQKPGQSPQLLIYEVSNRFSGVPDRFSGSGSGTDFTLKISRVEAEDVGVYYCMQNILLPLTFGGGTKVEIK ... 0.013 µg/mL

Kindly review the next binder as well.
Given FC6 (antibody, V domains shown) VH: QGQLVQSGAEVKKSGSSVKVSCKTSGGTFNSHAISWVRQAPGQGLEWIGGIIPMFGTTNYAQKLKGRIAITADQLPTTAYLELSSLRSEDTAVYYCARGQRYYYDRDGMDVWGQGTMVTVSS VL: EIVMTQTPLSLSVTPGQPASISCRSSQSLLHSDGKTYLYWYLQKPGQPPQLLISEVFNRFSGVPDRFSGSGSGTDFTLKISRVEAEDVGVYYCMQSLQLPLTFGGGTKVEIK , state its recorded K50.
0.066 µg/mL
